The measured values listed here are drawn from patent US20240158446A1.

Biological target: GDP-bound KRAS wild-type protein (Homo sapiens, UniProt P01116)
Sequence (P01116 whole entry): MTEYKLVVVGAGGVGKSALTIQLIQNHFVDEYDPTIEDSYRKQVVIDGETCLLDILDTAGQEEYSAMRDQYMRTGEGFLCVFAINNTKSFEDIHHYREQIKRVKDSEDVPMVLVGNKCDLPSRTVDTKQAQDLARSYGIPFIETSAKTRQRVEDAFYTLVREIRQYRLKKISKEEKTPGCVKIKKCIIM
Test: Binding to KRAS by surface plasmon resonance (SPR), Single Cycle Kinetics
Details: SPR Single Cycle Kinetics, GDP-bound KRAS wild-type protein, 1:1 binding model; read-out: KRAS KD
*1 amine or outer side, *2 acyl side, *3 side chain or, on linkers, in order; H or OH if unused. Where a SMILES comes first, the peptide text is derived from it. Bridges are numbered along the chain shown (N, C = ends). [ ]: non-standard residue; d: D form. The star is where a group is joined. hPhe(3-Cl-4-CF3) = N[C@@H](CCc1ccc(C(F)(F)F)c(Cl)c1)C(=O)O; X31 = COCCCN([C@@H](Cc1ccc(C(F)(F)F)cc1)C(=O)[*:2])[*:1]; NMeGly(cPent) = CN[C@H](C(=O)O)C1CCCC1; NMeD = CN[C@@H](CC(=O)O)C(=O)O; NMeL = CN[C@@H](CC(C)C)C(=O)O; Morpholide = C1CN(*)CCO1; NMeA = CN[C@@H](C)C(=O)O; Ac5c = NC1(C(=O)O)CCCC1; Aze = O=C(O)[C@@H]1CCN1; Sar = CNCC(=O)O
// reported Kd per item

[[record]]
compound = "CCCOC[C@H]1C(=O)N[C@@H]([C@@H](C)CC)C(=O)N(C)CC(=O)N(C)[C@H]2C/C=C\\CCN(C2=O)[C@@H](Cc2ccc(C)cc2)C(=O)N(C)CC(=O)N[C@@H](CCc2cc(F)c(C(F)(F)F)c(F)c2)C(=O)N2C[C@H](OCC)C[C@H]2C(=O)NC2(CC(C)(C)C2)C(=O)N(C)[C@@H](CC2CCC2)C(=O)N(C)[C@H](C(=O)N(C)C)CC(=O)N1C"
assayendpoint = "Kd"
obsvalue = "1.2 nM"


Record CCO[C@@H]1C[C@H]2C(=O)NC3(CCC3)C(=O)N(C)[C@@H](C3CCCC3)C(=O)N(C)[C@H](C(=O)N3CCOCC3)CC(=O)N(C)[C@@H](CC3CCCCC3)C(=O)N[C@@H]([C@@H](C)CC)C(=O)N(C)CC(=O)N(C)[C@H]3CCCCN(C3=O)[C@@H](Cc3ccc(C(F)(F)F)cc3)C(=O)N(C)CC(=O)N[C@@H](CCc3cc(F)c(C(F)(F)F)c(F)c3)C(=O)N2C1 has GDP-bound KRAS wild-type protein (Homo sapiens, UniProt P01116) Kd equal to 0.055 nM

The observed Kd for CCCOC[C@H]1C(=O)N[C@@H]([C@@H](C)CC)C(=O)N(C)CC(=O)N(C)[C@H]2C/C=C\CCN(C2=O)[C@@H](Cc2ccc(C)cc2)C(=O)N(C)CC(=O)N[C@@H](CCc2ccc(C(F)(F)F)c(OC)c2)C(=O)N2C[C@H](OCC)C[C@H]2C(=O)NC2(CC(C)(C)C2)C(=O)N(C)[C@@H](CC(C)(C)C)C(=O)N(C)[C@H](C(=O)N(C)C)CC(=O)N1C when tested with GDP-bound KRAS wild-type protein (Homo sapiens, UniProt P01116) stands at 0.11 nM

The recorded Kd with GDP-bound KRAS wild-type protein (Homo sapiens, UniProt P01116) for CC[C@H](C)[C@@H]1NC(=O)[C@H](CC(C)C)N(C)C(=O)C[C@@H](C(=O)N2CCOCC2)N(C)C(=O)[C@H](C2CCCC2)N(C)C(=O)C2(CCCC2)NC(=O)[C@@H]2CCCN2C(=O)[C@H](CCc2ccc(C(F)(F)F)c(Cl)c2)NC(=O)CN(C)C(=O)[C@H](Cc2ccc(C(F)(F)F)cc2)N(CCCOC)C(=O)[C@@H]2CCN2C(=O)[C@H](C)N(C)C1=O [PP0119] ([NMeL]I[NMeA][Aze][X31][Sar][hPhe(3-Cl-4-CF3)]P[Ac5c][NMeGly(cPent)][NMeD]-Morpholide; lactam N-11) was 0.1 nM
